Target: human mAChR M1 (Homo sapiens)
Assay: mAChR M1 cell-based functional assay (calcium mobilization), agonist mode: compound alone, Emax relative to acetylcholine maximum
Details: relative to the maximum for acetylcholine
reported_endpoint: Emax

# annotated cases, reported Emax shown
[
  {
    "molecule": "[2H]C1([2H])c2ncccc2C(=O)N1Cc1c(F)cc(-c2ccc(C(F)(F)F)c3nn(C([2H])([2H])[2H])cc23)cc1F [Compound 74]",
    "Emax": "1%"
  },
  {
    "molecule": "[2H]C1([2H])c2ncccc2C(=O)N1Cc1c(F)cc(-c2ccnc3nn(C([2H])([2H])[2H])cc23)cc1F [Compound 188]",
    "Emax": "9%"
  },
  {
    "molecule": "[2H]C1([2H])c2ncccc2C(=O)N1Cc1c(F)cc(-c2ccc3nn(C([2H])([2H])[2H])cc3c2)cc1F [Compound 100]",
    "Emax": "6%"
  },
  {
    "molecule": "[2H]C1([2H])c2ncccc2C(=O)N1Cc1c(C)cc(-c2cccc3nn(C([2H])([2H])[2H])cc23)cc1F (single isomer, unassigned) [Compound 156]",
    "Emax": "33%"
  },
  {
    "molecule": "[2H]C1([2H])c2ncccc2C(=O)N1Cc1ccc(-c2ccc(O[C@H]3CCOC3)c3nn(C)cc23)cc1F [Compound 144]",
    "Emax": "18%"
  }
]

# query: Emax of entry [2H]C1([2H])c2ncccc2C(=O)N1Cc1c(F)cc(-c2ccc(OCC)c3nn(C)cc23)cc1F [Compound 96]
26%

# query: Emax of entry [2H]C1([2H])c2ncccc2C(=O)N1Cc1c(F)cc(-c2ccc(F)c3nn(C)cc23)cc1OCC(C)C [Compound 214]
2%

====

This section presents compounds with their documented Emax values.
Molecular target: human mAChR M1 (Homo sapiens, UniProt P11229)
Sequence (P11229 1-460): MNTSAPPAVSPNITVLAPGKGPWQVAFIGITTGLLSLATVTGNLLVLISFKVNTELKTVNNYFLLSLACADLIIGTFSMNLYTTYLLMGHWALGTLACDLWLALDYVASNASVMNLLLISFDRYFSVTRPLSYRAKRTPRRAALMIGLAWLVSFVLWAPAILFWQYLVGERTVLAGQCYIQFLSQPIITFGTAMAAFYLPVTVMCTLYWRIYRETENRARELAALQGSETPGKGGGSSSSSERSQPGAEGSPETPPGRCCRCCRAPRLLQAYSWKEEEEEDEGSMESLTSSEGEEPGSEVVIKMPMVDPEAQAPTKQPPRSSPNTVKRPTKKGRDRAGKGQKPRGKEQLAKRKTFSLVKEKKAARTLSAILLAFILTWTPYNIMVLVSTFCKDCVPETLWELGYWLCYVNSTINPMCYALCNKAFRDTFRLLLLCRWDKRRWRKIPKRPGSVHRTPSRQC
Assay: mAChR M1 cell-based functional assay (calcium mobilization), PAM mode: increase in the EC20 acetylcholine response
Report the figure in % without appending any unit label.

# annotated cases, reported Emax shown
[
  {
    "compound": "[2H]C1([2H])c2ncccc2C(=O)N1Cc1ccc(-c2ccc(O[C@@H]3CCOC3)c3nn(C)cc23)cc1F [Compound 151]",
    "reported_endpoint": "Emax",
    "data_value": 76
  },
  {
    "compound": "[2H]C1([2H])c2ncccc2C(=O)N1Cc1ccc(-c2cccc3nn(C)cc23)cc1 [Compound 11]",
    "reported_endpoint": "Emax",
    "data_value": 77
  },
  {
    "compound": "[2H]C1([2H])c2ncccc2C(=O)N1Cc1c(F)cc(-c2ccc(C)c3nn(C)cc23)cc1OCC(C)C [Compound 213]",
    "reported_endpoint": "Emax",
    "data_value": 81
  },
  {
    "compound": "[2H]C([2H])([2H])Oc1ccc(-c2cc(F)c(CN3C(=O)c4cccnc4C3([2H])[2H])c(F)c2)c2cn(C)nc12 [Compound 93]",
    "reported_endpoint": "Emax",
    "data_value": 76
  },
  {
    "compound": "[2H]C([2H])([2H])Oc1cnc2c(c1)C(=O)N(Cc1c(F)cc(-c3cccc4nn(C([2H])([2H])[2H])cc34)cc1F)C2([2H])[2H] [Compound 78]",
    "reported_endpoint": "Emax",
    "data_value": 77
  },
  {
    "compound": "[2H]C1([2H])c2ncccc2C(=O)N1Cc1ccc(-c2ccc(C)c3nn(C)cc23)cc1C [Compound 30]",
    "reported_endpoint": "Emax",
    "data_value": 79
  },
  {
    "compound": "[2H]C1([2H])c2ncccc2C(=O)N1Cc1ccc(-c2ccc(O[C@H]3CCOC3)c3nn(C)cc23)cc1F [Compound 144]",
    "reported_endpoint": "Emax",
    "data_value": 75
  },
  {
    "compound": "[2H]C1([2H])c2ncccc2C(=O)N1Cc1c(F)cc(-c2cc(F)cc3nn(C([2H])([2H])[2H])cc23)cc1F [Compound 86]",
    "reported_endpoint": "Emax",
    "data_value": 46
  }
]

# query: Emax | item [2H]C1([2H])c2ncccc2C(=O)N1Cc1c(F)cc(-c2ccc(OC3CN(S(=O)(=O)C(C)C)C3)c3nn(C)cc23)cc1F [Compound 187] | system: human mAChR M1 (Homo sapiens, UniProt P11229)
67

# query: Emax | item [2H]C1([2H])c2ncccc2C(=O)N1Cc1c(F)cc(-c2ccc(OCSC)c3nn(C)cc23)cc1F [Compound 185] | system: human mAChR M1 (Homo sapiens, UniProt P11229)
74

# query: Emax | item [2H]C1([2H])c2ncccc2C(=O)N1Cc1ccc(-c2ccc(OC)c3nn(C([2H])([2H])[2H])cc23)cc1C [Compound 57] | system: human mAChR M1 (Homo sapiens, UniProt P11229)
87

# query: Emax | item [2H]C([2H])([2H])Oc1ccc(-c2ccc(CN3C(=O)c4cccnc4C3([2H])[2H])c(F)c2)c2cn(C)nc12 [Compound 107] | system: human mAChR M1 (Homo sapiens, UniProt P11229)
74
